target: Human immunodeficiency virus type 1 integrase (Human immunodeficiency virus 1) (UniProt Q7ZJM1); experiment: Binding affinity to His6-tagged recombinant HIV1 Integrase assessed as inhibition of protein interaction with 3xFLAG-tagged LEDGF/p75 at 100 uM preincubated for 30 mins followed by 3xFLAG-tagged LEDGF/p75 addition measured after 60 mins by AlphaScreen assay relative to control
Sequence (Q7ZJM1 as listed by the source): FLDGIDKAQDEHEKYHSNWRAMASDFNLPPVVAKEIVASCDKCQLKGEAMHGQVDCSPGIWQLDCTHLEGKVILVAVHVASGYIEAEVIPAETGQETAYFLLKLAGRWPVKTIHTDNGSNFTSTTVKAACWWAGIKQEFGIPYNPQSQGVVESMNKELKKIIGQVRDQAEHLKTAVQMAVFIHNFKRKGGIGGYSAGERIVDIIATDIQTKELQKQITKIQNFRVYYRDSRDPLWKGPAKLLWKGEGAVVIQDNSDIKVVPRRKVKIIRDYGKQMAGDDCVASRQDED
MEASURED_QUANTITY: inhibition

For `O=C(O)c1ccc(Nc2cccc3ccccc23)cc1` , what is its reported inhibition?
39%

Could you tell me which inhibition is on file for `COc1ccc(I)cc1Nc1ccc(OC)c2ccccc12` ?
61%

Which inhibition value is on record for `CCOC(=O)c1cn(Cc2ccc(C(=O)OC)cc2)c2ccccc2c1=O` ?
60%

Fill in the blank: the reported inhibition of `O=C(O)c1ccccc1Nc1c(O)ccc2ccccc12` is ____.
56%

Name the recorded inhibition for `COC(=O)c1ccc(Cn2cc(C(C)=O)c(=O)c3ccccc32)cc1` .
46%

====

Please provide measured pIC50 for the entries that follow.
target: Human immunodeficiency virus type 1 integrase (Human immunodeficiency virus 1, UniProt Q7ZJM1); experiment: Binding affinity to His6-tagged recombinant HIV1 Integrase assessed as inhibition of protein interaction with 3xFLAG-tagged LEDGF/p75 preincubated for 30 mins followed by 3xFLAG-tagged LEDGF/p75 addition measured after 60 mins by AlphaScreen assay
pIC50 is a log-scale quantity: -log10 of the concentration expressed in molar.

Find the recorded pIC50 belonging to `COc1ccc2ccccc2c1Nc1c(OC)ccc2ccccc12` and report it.
4.86

May I ask what pIC50 has been recorded for `O=C(O)c1cc(Nc2ccc(O)c3ccccc23)ccc1O` ?
4.72

Name the recorded pIC50 for `O=C(O)c1ccc(Nc2ccc3ccccc3c2O)cc1` .
4.15

Look up pIC50: Cc1ccc(-c2c(C(OC(C)(C)C)C(=O)O)ccc3sc(C)cc23)cc1 (stereo unspecified)
7.34

Which pIC50 is reported for this compound? `COc1ccc(I)cc1Nc1ccc(OC)c2ccccc12`
4.54

====

target: Human immunodeficiency virus type 1 integrase (Human immunodeficiency virus 1) (UniProt Q7ZJM1); test: Binding affinity to His6-tagged recombinant HIV1 Integrase assessed as inhibition of protein interaction with 3xFLAG-tagged LEDGF/p75 at 100 uM preincubated for 30 mins followed by 3xFLAG-tagged LEDGF/p75 addition measured after 60 mins by AlphaScreen assay relative to control
Calls of active or inactive are those of the source. No cut-off for these calls is given here.
MEASURED_QUANTITY: inhibition

Some compounds with recorded inhibition:
COC(=O)c1ccc(Nc2cccc3ccccc23)cc1
62%
O=C(O)c1ccc(Nc2ccc(O)c3ccccc23)cc1
95%
COc1c(Nc2ccccc2)ccc2ccccc12
inactive
COC(=O)c1ccc(Cn2ccc(=O)c3ccccc32)cc1
25%
Oc1c(Nc2ccccc2)ccc2ccccc12
61%

Please look up its inhibition: `COc1ccc(Nc2ccc(OC)c3ccccc23)cc1`
57%

Given `COc1c(Nc2ccc(C(=O)O)cc2)ccc2ccccc12` , state its recorded inhibition.
inactive

I have this compound here, `CSc1ccc(Nc2ccc(F)c3ccccc23)cc1` , and I need its recorded inhibition.
inactive

Look up inhibition for this compound: `CC(=O)c1cn(Cc2ccc(C(=O)O)cc2)c2ccccc2c1=O`
inactive

Data request, read-out inhibition, for `COc1ccc(S(=O)(=O)c2ccc(OC)c3ccccc23)cc1`
inactive

====

target: Human immunodeficiency virus type 1 integrase (Human immunodeficiency virus 1, UniProt Q7ZJM1); test: Binding affinity to His6-tagged recombinant HIV1 Integrase assessed as inhibition of protein interaction with 3xFLAG-tagged LEDGF/p75 preincubated for 30 mins followed by 3xFLAG-tagged LEDGF/p75 addition measured after 60 mins by AlphaScreen assay
MEASURED_QUANTITY: pIC50
Reminder that pIC50 is minus the log10 of a molar concentration.

What value of pIC50 has been reported for the following molecule? `COC(=O)c1ccc(Nc2ccc(OC)c3ccccc23)cc1`
4.46

Need pIC50 of `O=C(O)c1ccc(Nc2ccc(O)c3ccccc23)cc1` , thanks.
5.60

Value source: ChEMBL document CHEMBL3612005
